Parameter: melting point. Scope: all listed entries.
readout-type: melting point (°C)

molecule	unit-descriptor	test-value
CCOC(=O)c1nnn(C[C@@H]2C[C@@H](S)CN2S(=O)(=O)c2ccc3ccccc3c2)c1C	°C	95
O=C(Nc1ccccc1F)N1C[C@H](S)C[C@H]1CNCc1cc(F)ccc1F	°C	126
Cc1c(-c2ccccc2)nnn1C[C@@H]1C[C@@H](S)CN1S(=O)(=O)c1ccc2ccccc2c1	°C	146
Nc1c(-c2ccccc2)nnn1C[C@@H]1C[C@@H](S)CN1S(=O)(=O)c1ccc2ccccc2c1	°C	70
CS(=O)(=O)N1C[C@H](S)C[C@H]1Cn1nnc(C(N)=O)c1N	°C	189
